test system: acute myeloid leukemia cell line MV4-11; test: Growth of cancer cells, Cell Titer-Glo GI50, MV4-11; settings: Homo sapiens, MV4-11, 72 h, read-out: GI50 MV4-11
Rule: GI50 below 0.02 µM gives Condition met, anything at or above gives Condition not met.

Determine if CC1(C)CNC(=O)c2ccc(-c3ccnc(NC4CCN(S(C)(=O)=O)CC4)n3)cc21 [Compound 105] shows GI50 strictly lower than 0.02 µM. Condition not met

Same for CN1CCN(c2cccc(Nc3nccc(-c4ccc5c(c4)C(C)(C)CNC5=O)n3)c2)CC1 [Compound 37] Condition met

Param item: CCc1cnn2c(NCc3ccc[n+]([O-])c3)cc(N3CCCC[C@H]3CCO)nc12 [Dinaciclib, reference compound] Condition not met

Now consider CN1CCC(NC(=O)c2cccc(Nc3nccc(-c4ccc5c(c4)C(C)(C)CNC5=O)n3)c2)CC1 [Compound 33] and answer again. Condition met

Likewise for CC1(C)CNC(=O)c2ccc(-c3ccnc(N[C@@H]4CCCN(S(C)(=O)=O)C4)n3)cc21 [Compound 104] ? Condition not met

Please do the same for CC1(C)CNC(=O)c2ccc(-c3ccnc(Nc4cccc(N5CCCNCC5)c4)n3)cc21 [Compound 35] as well. Condition met

Can you handle CC1(C)CNC(=O)c2ccc(-c3ccnc(Nc4cccc(CS(C)(=O)=O)c4)n3)cc21 [Compound 28] next? Condition met

----------
Answer each item with its documented IC50.
molecular target: CDK9/CyclinT1 protein (Homo sapiens (Human), UniProt P50750); experiment: Enzyme activity assay of CDK9 protein inhibition in vitro, CDK9/CyclinT1
Sequence (P50750 whole entry): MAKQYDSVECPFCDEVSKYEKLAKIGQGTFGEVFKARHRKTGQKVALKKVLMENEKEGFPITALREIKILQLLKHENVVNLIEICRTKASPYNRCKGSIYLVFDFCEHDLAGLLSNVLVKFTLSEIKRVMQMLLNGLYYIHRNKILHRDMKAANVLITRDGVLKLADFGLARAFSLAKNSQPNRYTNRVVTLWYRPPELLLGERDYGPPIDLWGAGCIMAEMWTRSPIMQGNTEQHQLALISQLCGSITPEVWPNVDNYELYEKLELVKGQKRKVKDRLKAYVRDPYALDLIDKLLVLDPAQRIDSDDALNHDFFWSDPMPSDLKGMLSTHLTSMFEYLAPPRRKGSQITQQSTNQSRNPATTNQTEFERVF
Sequence (O60563 whole entry partner): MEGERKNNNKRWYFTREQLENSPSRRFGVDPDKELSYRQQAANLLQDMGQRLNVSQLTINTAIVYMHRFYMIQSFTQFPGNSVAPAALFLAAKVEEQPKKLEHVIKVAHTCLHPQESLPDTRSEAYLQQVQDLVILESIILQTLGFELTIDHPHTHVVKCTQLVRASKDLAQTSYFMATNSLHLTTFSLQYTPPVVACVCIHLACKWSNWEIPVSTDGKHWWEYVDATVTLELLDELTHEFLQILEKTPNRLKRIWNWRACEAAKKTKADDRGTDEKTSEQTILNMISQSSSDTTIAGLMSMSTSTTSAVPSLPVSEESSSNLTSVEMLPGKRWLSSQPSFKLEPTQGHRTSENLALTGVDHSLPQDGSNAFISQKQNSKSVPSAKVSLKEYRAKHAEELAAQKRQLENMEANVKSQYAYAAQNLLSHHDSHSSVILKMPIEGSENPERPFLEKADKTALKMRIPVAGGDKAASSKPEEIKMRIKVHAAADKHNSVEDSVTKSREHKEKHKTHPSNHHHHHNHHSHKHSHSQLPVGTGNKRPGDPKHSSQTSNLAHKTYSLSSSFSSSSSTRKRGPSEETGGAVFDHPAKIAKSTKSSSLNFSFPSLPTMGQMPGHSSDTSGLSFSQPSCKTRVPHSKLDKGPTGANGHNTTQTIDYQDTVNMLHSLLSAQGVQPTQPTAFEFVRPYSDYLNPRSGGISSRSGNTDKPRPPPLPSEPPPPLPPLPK
Provide only the numeric value, understood in nM.

Give its IC50 value. Item: CN1CCN(c2cc(Nc3ncc(F)c(-c4ccc5c(c4)C(C)(C)CNC5=O)n3)ccc2F)CC1 15

Here is the next molecule: CC1(C)CNC(=O)c2ccc(-c3ccnc(N[C@H]4CC[C@H](CC(=O)O)CC4)n3)cc21 10.4

# repeat for CC1(C)CNC(=O)c2ccc(-c3ccnc(NC4CCN(S(C)(=O)=O)CC4)n3)cc21 15

Now the same for COCCN[C@H]1CC[C@H](Nc2ncc(Cl)c(-c3ccc4c(c3)C(C)(C)NC4=O)n2)CC1 13

Consider next the molecule Cc1ccc(Nc2nccc(-c3ccc4c(c3)C(C)(C)CNC4=O)n2)cc1N1CCN(C)CC1 in the same way. 2.6

Please give the result for CN1CCC(NC(=O)c2cc(Nc3nccc(-c4ccc5c(c4)C(C)(C)CNC5=O)n3)ccc2F)CC1 too. 2.5

And the next one, CC1(C)CNC(=O)c2ccc(-c3ccnc(N[C@@H]4CCCN(S(C)(=O)=O)C4)n3)cc21 ? 0.9

What do you get for CN1CCN(c2ccc(Nc3nccc(-c4ccc5c(c4)C(C)(C)CNC5=O)n3)cc2)CC1 ? 6.6

And the next one, CN(C)S(=O)(=O)c1cccc(Nc2nccc(-c3ccc4c(c3)C(C)(C)CNC4=O)n2)c1 ? 27

Try this molecule next: CC1(C)CNC(=O)c2ccc(-c3ccnc(Nc4ccc(F)c(NS(C)(=O)=O)c4)n3)cc21 6.1

----------
tested on: acute myeloid leukemia cell line MOLM13; assay: Growth of cancer cells, Cell Titer-Glo GI50, MOLM13; assay type: cell-based; details: Homo sapiens, MOLM-13; incubated for 72 hours, Cell Titer-Glo; Table 1; read-out: GI50 MOLM 13
quantity-name: GI50 (nM)
Kindly answer with a numeric value in nM, unit omitted.

What reported GI50 corresponds to CN(C)S(=O)(=O)c1cccc(Nc2nccc(-c3ccc4c(c3)C(C)(C)CNC4=O)n2)c1 on acute myeloid leukemia cell line MOLM13? 35

Check COCCN[C@H]1CC[C@H](Nc2ncc(Cl)c(-c3ccc4c(c3)C(C)(C)NC4=O)n2)CC1 too. 28

----------
I'd appreciate it if you could supply GI50 values for the items below.
tested on: acute myeloid leukemia cell line MOLM13; assay: Growth of cancer cells, Cell Titer-Glo GI50, MOLM13; assay type: cell-based; settings: Homo sapiens, MOLM-13; incubated for 72 hours, Cell Titer-Glo; Table 1; read-out: GI50 MOLM 13
Give the number; µM is assumed, so skip it.

Which GI50 reading was recorded for the compound CCc1cnn2c(NCc3ccc[n+]([O-])c3)cc(N3CCCC[C@H]3CCO)nc12 [Dinaciclib, reference compound] ? 0.011

Similarly, CC(C)N1CCN(c2cc(Nc3ncc(F)c(-c4ccc5c(c4)C(C)(C)CNC5=O)n3)ccc2F)CC1 ? 0.0033

Cool, now CN1CCC(NC(=O)c2cc(Nc3nccc(-c4ccc5c(c4)C(C)(C)CNC5=O)n3)ccc2F)CC1 0.011

Cool, now CC1(C)CNC(=O)c2ccc(-c3nc(Nc4ccc(F)c(C5(S(C)(=O)=O)CC5)c4)ncc3F)cc21 0.019

Subsequent entry: CN1CCN(c2cc(Nc3ncc(Cl)c(-c4ccc5c(c4)C(C)(C)CNC5=O)n3)ccc2F)CC1 0.033

----------
target: CDK9-L156F mut/CyclinT1 mutant protein (Homo sapiens (Human), UniProt P50750, L156F); assay: Enzyme activity assay of CDK9 mutant protein inhibition in vitro, CDK9-L156F mut/CyclinT1
Sequence (P50750 whole entry L156F): as the sequence (P50750 whole entry) above, with L156F counted along it
Sequence (O60563 whole entry partner): as the sequence (O60563 whole entry partner) above
For each record, write down the corresponding pIC50.
Reminder that pIC50 is minus the log10 of a molar concentration.

# query: pIC50 | item Cc1ccc(Nc2nccc(-c3ccc4c(c3)C(C)(C)CNC4=O)n2)cc1N1CCN(C)CC1 | system: CDK9-L156F mut/CyclinT1 mutant protein (Homo sapiens (Human), UniProt P50750, L156F) 6.98

Could you do the same for COCCN[C@H]1CC[C@H](Nc2nccc(-c3ccc4c(c3)C(C(C)C)(C(C)C)CNC4=O)n2)CC1 , please? 7.01

----------
tested on: acute myeloid leukemia cell line MV4-11; assay: Growth of cancer cells, Cell Titer-Glo GI50, MV4-11; conditions: Homo sapiens, MV4-11, 72 h, read-out: GI50 MV4-11
quantity-name: GI50 (nM)
Numeric only. Scale: nM

What does the data say about its GI50? Entry: CN1CCC(NC(=O)c2cc(Nc3nccc(-c4ccc5c(c4)C(C)(C)CNC5=O)n3)ccc2F)CC1 6.6

CC1(C)CNC(=O)c2ccc(-c3ccnc(Nc4cccc(S(C)(=N)=O)c4)n3)cc21 (stereo not shown) ? 13

Same again, this time with CC1(C)CNC(=O)c2ccc(-c3ccnc(Nc4ccc(F)c(NS(C)(=O)=O)c4)n3)cc21 4

What would you report for CN(C)S(=O)(=O)c1cccc(Nc2nccc(-c3ccc4c(c3)C(C)(C)CNC4=O)n2)c1 ? 57
